Target: CtPilB (Chloracidobacterium thermophilum, UniProt G2LDI3)
Sequence (G2LDI3 140-614): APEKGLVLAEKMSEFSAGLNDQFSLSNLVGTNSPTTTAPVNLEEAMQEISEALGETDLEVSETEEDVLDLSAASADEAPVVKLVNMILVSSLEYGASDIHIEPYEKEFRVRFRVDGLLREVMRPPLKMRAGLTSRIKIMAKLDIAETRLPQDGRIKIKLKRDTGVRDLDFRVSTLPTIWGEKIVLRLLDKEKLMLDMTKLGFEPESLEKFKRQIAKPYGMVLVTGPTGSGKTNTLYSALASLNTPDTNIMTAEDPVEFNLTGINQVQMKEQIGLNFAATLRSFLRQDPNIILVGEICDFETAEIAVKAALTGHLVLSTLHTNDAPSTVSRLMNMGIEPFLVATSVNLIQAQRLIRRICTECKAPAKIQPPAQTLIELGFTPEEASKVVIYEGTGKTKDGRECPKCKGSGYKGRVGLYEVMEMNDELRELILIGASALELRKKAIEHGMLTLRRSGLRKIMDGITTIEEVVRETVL
Experiment: CtPilB ATPase malachite green assay
Assay type: biochemical
Settings: dose–response 0.01–50 μM, benserazide as control
QUANTITY_NAME: IC50 (nM)
Give a bare numeral; the unit nM is implied.

Quick one: IC50 for N[C@H](CO)C(=O)N/N=C/c1c(O)cccc1O [8g] ? 1320

Origin of values: paper PMC12138345
